Target: GABARAPL2 WT (UniProt P60520 1-117)
Sequence (P60520 whole entry): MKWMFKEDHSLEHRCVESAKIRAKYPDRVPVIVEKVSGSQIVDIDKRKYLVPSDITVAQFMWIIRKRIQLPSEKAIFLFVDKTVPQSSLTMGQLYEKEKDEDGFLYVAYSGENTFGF
Assay: ITC; peptide in the syringe (0.5 mM) titrated into 200 µl of the Atg8 homologue in the cell at a 10 times lower concentration; MicroCal iTC200, 25 °C, stirring at 1000 rpm; single-site binding model; N fixed to 1.0 when the fitting was not convergent due to weak interaction; errors are fitting errors
Settings: both partners purified
measureName: Kd (µM)
Dear colleague, please return just the value in µM, with no unit written.

Entry ESPFEVIIDKAAFDKEFKDSY (numbers count on: isoform e; Tyr attached to the C terminus for quantification by absorbance at 280 nm; source: synthetic peptide) [RTN3245-264 peptide] , Kd reported as 17.4
